Entries and their measured growth inhibition follow.
Test: NCI Yeast Anticancer Drug Screen. Data for the rad18 strain (AID 177)
Conditions: S. cerevisiae rad18 mutant growth inhibition; at 1.2 µM; hits give high values
This is part of a sample that, as a whole, favours compounds with a hit. Of some 79,000 tested, about 15% had one in any assay.
API: value field is a number in %; no unit string.

Lab note: O=C(O)C1OC1(c1cccc(Cl)c1)c1ccccc1Cl (stereo unspecified) gave growth inhibition of -6

###

Test: NCI Yeast Anticancer Drug Screen. Data for the bub3 strain (AID 167)
Conditions: S. cerevisiae bub3 mutant strain, at 5.0 µM (retest, dose inferred, filed as 0.5), hits give high values
About 79,000 compounds went through this panel and 15% of them were active in at least one assay; those are over-represented in the sample as a whole.
measurement.name: growth inhibition (%)
API: value field is a number in %; no unit string.

Before answering, review these 4 worked examples.
Lab note: CC1(Cl)CC(O)C2(CC1Br)C1(C)OC1C1OC1(Br)C2(C)C (stereo not drawn) gave growth inhibition of 29

Lab note: `COc1ccc(OC)c2cc3ccccc3cc12` gave growth inhibition of 36

Lab note: `O=Cc1cccc2ccc3ccccc3c12` gave growth inhibition of -54

Lab note: `C[Si](C)(C)CNC(=O)OCc1ccccc1` gave growth inhibition of 6

Continuing:
Lab note: OC1(c2ccccc2)CSC2=Nc3ccccc3C3CCN1N23 (stereo not drawn) gave growth inhibition of 19

Lab note: `c1ccc(-c2ccnc3c2ccc2c(-c4ccccc4)ccnc23)cc1` gave growth inhibition of 11

Lab note: `c1ccc(-c2nc3cccnc3s2)cc1` gave growth inhibition of 25

Lab note: `Cc1ccc(Cl)c2[nH]c(-c3ccccc3)cc(=O)c12` gave growth inhibition of -17

Lab note: `Cc1ccc(S(=O)(=O)NC(=O)NC2=NC(C)(C)N(c3ccc(Cl)c(Cl)c3)C(N)=N2)cc1` gave growth inhibition of 1

Lab note: `CC(=O)SCCC[Si](C)(C)CCCSC(C)=O` gave growth inhibition of 10

Lab note: `CC[C@@]1(O)C(=O)OCc2c1cc1n(c2=O)Cc2cc3c(CN(C)C)c(O)ccc3nc2-1` gave growth inhibition of -3

Lab note: `CCCCOC(=O)N[C@H]1CCc2cc(OC)c(OC)c(OC)c2-c2ccc(SC)c(=O)cc21` gave growth inhibition of 0

Lab note: `CC(=O)Nc1ccc(/C=C(\C#N)c2ccc(C)cc2)cc1` gave growth inhibition of -11

###

Experiment: NCI Yeast Anticancer Drug Screen. Data for the bub3 strain (AID 167)
Conditions: S. cerevisiae bub3 mutant strain, at 33.0 µM, hits give high values
This is part of a sample that, as a whole, favours compounds with a hit. Of some 79,000 tested, about 15% had one in any assay.
measurement.name: growth inhibition (%)
API: value field is a number in %; no unit string.

Before answering, review these 5 worked examples.
Lab note: `CCCCCCc1cc(C(=O)OC/C(C)=N/NC(N)=O)c2ccccc2n1` gave growth inhibition of 3

Lab note: C(=C\c1ccccc1)/COc1ccccc1C(N1CCOCC1)n1nc2ccccc2n1 (configuration not stated) gave growth inhibition of 86

Lab note: `Cc1ccc(N)c(S)c1` gave growth inhibition of 98

Lab note: `CCCCN(CCCC)CCSc1ccc(Cl)cc1` gave growth inhibition of 3

Lab note: `CNC(=O)OCc1c(COC(=O)NC)c(-c2ccc(Cl)c(Cl)c2)n2c1CCC2` gave growth inhibition of 93

Continuing:
Lab note: N#CC(C(=O)Nc1ccccc1)C1=C(Cl)C(=O)c2ccccc2C1=O (configuration not stated) gave growth inhibition of 97

Lab note: `O=C(NNc1ccnc2cc(Cl)ccc12)/C(=C\c1ccccc1Cl)NC(=O)c1ccccc1` gave growth inhibition of 76

Lab note: `C/C(=N\NC(=S)SCc1ccccc1)c1ccccn1` gave growth inhibition of 95

Lab note: `CC(=O)[O][Bi]([c]1ccccc1)[c]1ccccc1` gave growth inhibition of 91

Lab note: `Cc1ccc(S(=O)(=O)NC(=O)NC2=NC(C)(C)N(c3ccc(Cl)c(Cl)c3)C(N)=N2)cc1` gave growth inhibition of -8

Lab note: `O=[N+]([O-])c1cccc([N+](=O)[O-])c1S(=O)(=O)c1ccccc1` gave growth inhibition of 92

Lab note: CN1CCc2ccccc2C1Cc1ccccc1NC(=O)c1sc2ccccc2c1Cl (configuration not stated) gave growth inhibition of 22

###

Entries and their measured growth inhibition follow.
Assay: NCI Yeast Anticancer Drug Screen. Data for the mgt1 strain (AID 153)
Settings: S. cerevisiae mgt1 mutant growth inhibition; at 33.0 µM; hits give high values
About 79,000 compounds went through this panel and 15% of them were active in at least one assay; those are over-represented in the sample as a whole.
API: value field is a number in %; no unit string.

Lab note: `CCN(CC)CCNc1ccc([N+](=O)[O-])c2nc3ccc(OC)cc3c(N)c12` gave growth inhibition of 15

Continuing:
Lab note: O=C1OC(=O)C2CCCC3CCCC1C32 (stereo unspecified) gave growth inhibition of 87

Lab note: `Cc1ccc(NN(NC(=O)OC(C)C)C(=O)OC(C)C)cc1` gave growth inhibition of 14

Lab note: `Cn1c(N)nc(-c2ccc(Cl)cc2)c1SSc1c(-c2ccc(Cl)cc2)nc(N)n1C` gave growth inhibition of 71

Lab note: `NC(=NCc1ccccc1)N/N=C\c1ccnc2ccccc12` gave growth inhibition of 3

Lab note: `S=C(N/N=C(/c1ccccc1)c1ccccn1)N1CCCCCC1` gave growth inhibition of -18

Lab note: `CCN(CC)C(=S)N/N=C(/C)c1cccc(/C(C)=N\NC(=S)N(CC)CC)n1` gave growth inhibition of 61

Lab note: OC1CCCc2c1cc1ccc3cccc4ccc2c1c34 (stereo unspecified) gave growth inhibition of 98

Lab note: `CC[C@@]1(O)C(=O)OCc2c1cc1n(c2=O)Cc2cc3c(N)cccc3nc2-1` gave growth inhibition of 2

Lab note: `O=C(c1cc(Br)ccc1O)c1cc(Br)ccc1O` gave growth inhibition of 100

Lab note: `O=C(O)c1ccccc1-c1ccccc1C(=O)Nc1ccc2c(c1)Cc1ccccc1-2` gave growth inhibition of 65

Lab note: CCN(CC)CC(O)c1ccc2ccc3ccccc3c2c1 (stereo unspecified) gave growth inhibition of 21

Lab note: `COc1cc2c3c(cccc3c1)C(=O)N(CCN(C)C)C2=O` gave growth inhibition of -23

Lab note: `CC1(C)[C@@H]2CC[C@]1(C)[C@H](OC(=O)CSC#N)C2` gave growth inhibition of 90

Lab note: `O=C1Nc2ccccc2/C1=C/COc1ccccc1` gave growth inhibition of 93

Lab note: `O=C([O][Sn]([O]C(=O)c1ccccc1)([c]1ccccc1)[c]1ccccc1)c1ccccc1` gave growth inhibition of 43

Lab note: `c1ccc(-c2nc3cccnc3s2)cc1` gave growth inhibition of -10

Lab note: Cc1cccc2c(C(O)CBr)cc(-c3ccc(Cl)cc3)nc12 (stereo unspecified) gave growth inhibition of 97

Lab note: CC(C)(CN1CCCCC1)C(=O)CC(SCCS(=O)(=O)O)c1ccc(Br)cc1 (stereo unspecified) gave growth inhibition of 21

Lab note: `COc1ccc(Br)c(C(=O)Sc2nnnn2-c2cccc(Cl)c2)c1` gave growth inhibition of 30

Lab note: `Cn1c2ccccc2c(=O)c2cc(NC(=O)CCCCC(=O)Nc3ccc4c(c3)c(=O)c3ccccc3n4C)ccc21` gave growth inhibition of -3

Lab note: `CC(=O)Nc1ccc2c(c1)C(=Nc1ccc(C(=O)O)cc1)c1ccccc1-2` gave growth inhibition of 3

Lab note: Nc1ccccc1CC(O)C(=O)O (stereo unspecified) gave growth inhibition of 74

###

Entries and their measured growth inhibition follow.
Test: NCI Yeast Anticancer Drug Screen. Data for the rad18 strain (AID 177)
Conditions: S. cerevisiae rad18 mutant growth inhibition; at 1.2 µM; hits give high values
This is part of a sample that, as a whole, favours compounds with a hit. Of some 79,000 tested, about 15% had one in any assay.
API: value field is a number in %; no unit string.

Before answering, review these 6 worked examples.
Lab note: COC(=O)C1=C(C(=O)OC)C2(C)C=CC1O2 (configuration not stated) gave growth inhibition of -10

Lab note: `CCCCOC(=O)N[C@H]1CCc2cc(OC)c(OC)c(OC)c2-c2ccc(SC)c(=O)cc21` gave growth inhibition of -1

Lab note: CC(C)C1=CCC2C(=C1)CCC1C(C)(C(=O)O)CCCC21C (configuration not stated) (tested in a mixture with another compound) gave growth inhibition of -5

Lab note: N#CC(C(=O)Nc1ccccc1)C1=C(Cl)C(=O)c2ccccc2C1=O (configuration not stated) gave growth inhibition of -15

Lab note: CN1CCc2ccccc2C1Cc1ccccc1NC(=O)c1sc2ccccc2c1Cl (configuration not stated) gave growth inhibition of -38

Lab note: OC1(c2ccccc2)CSC2=Nc3ccccc3C3CCN1N23 (configuration not stated) gave growth inhibition of -65

Proceed to the following item.
Lab note: `O=C(O)CNc1ccc(Cl)c(Cl)c1` gave growth inhibition of -2
